target: UniProtKB O00408; assay: Inhibition of human lung low-affinity cGMP phosphodiesterases (10-50 uM/L)
Sequence (O00408 whole entry): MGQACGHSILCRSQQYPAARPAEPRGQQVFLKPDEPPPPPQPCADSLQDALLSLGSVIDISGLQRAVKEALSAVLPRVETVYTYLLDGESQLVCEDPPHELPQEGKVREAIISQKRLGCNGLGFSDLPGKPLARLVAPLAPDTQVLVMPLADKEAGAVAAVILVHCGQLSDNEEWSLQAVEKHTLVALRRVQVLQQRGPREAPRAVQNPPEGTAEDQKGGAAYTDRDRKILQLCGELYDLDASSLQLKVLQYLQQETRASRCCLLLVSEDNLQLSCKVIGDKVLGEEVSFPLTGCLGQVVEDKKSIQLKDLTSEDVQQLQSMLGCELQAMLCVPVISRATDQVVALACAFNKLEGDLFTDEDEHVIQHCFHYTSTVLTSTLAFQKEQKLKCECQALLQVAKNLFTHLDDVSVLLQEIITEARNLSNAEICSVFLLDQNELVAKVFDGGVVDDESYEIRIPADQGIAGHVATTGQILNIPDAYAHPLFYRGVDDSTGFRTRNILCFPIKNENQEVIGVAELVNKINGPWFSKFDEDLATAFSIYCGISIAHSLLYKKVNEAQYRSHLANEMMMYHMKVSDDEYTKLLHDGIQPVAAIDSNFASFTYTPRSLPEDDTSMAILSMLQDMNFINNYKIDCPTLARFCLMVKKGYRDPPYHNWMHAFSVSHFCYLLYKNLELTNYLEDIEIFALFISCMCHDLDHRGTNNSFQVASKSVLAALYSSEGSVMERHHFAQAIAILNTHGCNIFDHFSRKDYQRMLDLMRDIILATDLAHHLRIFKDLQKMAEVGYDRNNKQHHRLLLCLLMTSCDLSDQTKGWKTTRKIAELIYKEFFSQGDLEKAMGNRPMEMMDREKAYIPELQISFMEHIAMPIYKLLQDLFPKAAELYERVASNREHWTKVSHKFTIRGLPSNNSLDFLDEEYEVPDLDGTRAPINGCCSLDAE
REPORTED_METRIC: Ki (µM)
Entry rule: numbers only, all in µM.

{"COMPOUND": "C[C@H](O)Cn1cnc2c1c(=O)n(C)c(=O)n2C [(S)-PROXYPHYLLINE]", "Ki, µM": 700}
{"COMPOUND": "CC(O)Cn1cnc2c1c(=O)n(C)c(=O)n2C (stereo not drawn)", "Ki, µM": 600}

Query compound follows.
Q: Given the compound C[C@@H](O)Cn1cnc2c1c(=O)n(C)c(=O)n2C [(R)-PROXYPHYLLINE] , what is its reported Ki?
Ans: 600

Cited source: ChEMBL document CHEMBL1122482
